- Experimental details: Mycobacterium tuberculosis growth inhibition, primary screen (AID 1259343)
- Assay conditions: at 10 µM, stronger effect = higher value
Hit rate of the full screen: of about 6,200 compounds, about 2,900 (47%) were called active. So high a share suggests a set chosen from earlier hits. This is one part of the list.
Is inhibition at least 50%? Then Y. If not, N.

Enquiry: Could you verify whether the entry S=C(NNc1ccccc1)NC12CC3CC(CC(C3)C1)C2 shows inhibition of no less than 50%?
Return: Y

Enquiry: For this compound, is measured inhibition 50% or higher? CN(CC1Cc2ccccc2O1)C(=O)Nc1nc(-c2ccccc2)ns1 (stereo not drawn)
Return: N

Enquiry: Identify whether the reported inhibition of the following compound is 50% or greater: CCOc1cc(C=NNc2nc(C)cs2)ccc1OC
Return: Y

----------
- Experimental details: Mycobacterium tuberculosis growth inhibition, primary screen (AID 1259343)
- Assay conditions: at 10 µM
The whole screen tested about 6,200 compounds, of which about 2,900 (47%) were called active. No stated cut-off is given here; in the data, active means inhibition above about 50%; inactive means the rest. So high a share suggests a set chosen from earlier hits. This is one part of the list.
API: response.call in True = active, False = inactive

OCCNc1nc(-c2ccccc2)c2cc(Br)ccc2n1
False
CCN(CC)CCN1CCN(c2ccnc3c(-c4cc(C(F)(F)F)cc(C(F)(F)F)c4)cnn23)CC1
False
CCSc1nnc2c(n1)OC(c1ccc(OCc3ccccc3)cc1)Nc1ccccc1-2 (stereo not drawn)
True

Enquiry: Recorded call for CC(C)c1csc(C2CCN(C(=O)CCc3ccsc3)CC2)n1 ?
Return: True

Enquiry: GET /call?item= O=S(=O)(c1ccc(Cl)cc1)c1nc(Nc2ccc(F)cc2F)sc1Cl returns the recorded outcome of this test.
Return: True

----------
- Experimental details: Mycobacterium tuberculosis growth inhibition, primary screen (AID 1259343)
- Assay conditions: at 10 µM, stronger effect = higher value
Among all 6,200 compounds or so, about 2,900 (47%) were called active. The set was probably picked from earlier hits. Some of the results follow.
Value type: inhibition (%)
Lab book: enter the figure in %, no units written.

Use these answered entries as a reference point.
CCCCCCSC1=C(C#N)C2(CCCCC2)C(C#N)C(=O)N1 (centres undefined)
4.19
CCOC(=O)C1=C(O)/C(=C\c2cccc(C)n2)SC1=Nc1cccc(F)c1
-12.2
Cc1ccc(OCC2CN(C(=O)COc3ccc(F)cc3)CCO2)cc1 (centres undefined)
82.5
C#CCN(CC=C)Cc1nc(-c2ccc(Cl)cc2)oc1C
14.8
CN1CCN(CC(O)COc2ccc(C34CC5CC(CC(C5)C3)C4)cc2)CC1 (centres undefined)
101
CCCc1nnc(-c2cc3ccccc3[nH]2)o1
38.4
COc1cc(C(=O)NCC(=O)Nc2nc3c(ccc4ccccc43)s2)cc(OC)c1OC
88.5
C=CCSc1nnc(NC(=O)C2CCCCC2)s1
91.9

Enquiry: Report inhibition, nothing else, for this compound: CNc1ccc(C(=O)N2CCOC(COc3ccc(Cl)c(C)c3)C2)cc1 (centres undefined)
Return: 53

Enquiry: Answer with the recorded inhibition of O=C1CCCC2=C1C(c1cccs1)n1ncnc1N2 (centres undefined) only.
Return: -18.9

Enquiry: Tell me its inhibition given Oc1ccc(N2CCN(Cc3nc(-c4ccc(C(F)(F)F)cc4)no3)CC2)cc1 as the entry.
Return: 72.1

Enquiry: Tell me its inhibition given O=C(Nc1ccc(-c2ccccc2)cc1)C1CC=CCC1C(=O)N1CCc2c([nH]c3ccccc23)C1 (centres undefined) as the entry.
Return: 91

Enquiry: Please indicate inhibition recorded for N#Cc1c(SCc2ccccc2)n[nH]c1-c1cccs1
Return: 37.8

Enquiry: Specify reported inhibition for the compound shown: O=C(NS(=O)(=O)CCc1ccccc1)c1cccs1
Return: 57

Enquiry: Supply recorded inhibition for COc1cccc(-c2cc3c(Nc4ccc5c(c4)OCCO5)nccc3n2C)c1 here.
Return: 61.1

Enquiry: Look up and state reported inhibition for Cc1ccc(NCCOc2ccccc2F)cc1-n1cnnn1
Return: 54.8

Enquiry: Give the measured inhibition for COc1cc(NC(=O)c2ccc(C)s2)cc(OC)c1OC
Return: 6.84

Enquiry: Give reported inhibition value for O=C(CCl)N1CCSC1c1ccccc1F (centres undefined)
Return: 99.6

Enquiry: Could you please provide reported inhibition for COc1ccc(-c2noc(CN3CCC(O)(c4cccc(C(F)(F)F)c4)CC3)n2)cc1 ? Thanks!
Return: 56.9

Enquiry: # return recorded inhibition for input Cc1nc2c(-c3ccccc3)c[nH]n2c(=O)c1C
Return: 23.2

Enquiry: Report inhibition, nothing else, for this compound: CS(=O)(=O)c1nnnn1-c1ccccc1Cl
Return: 95.7

Enquiry: Tell me inhibition reported for Cc1ccc(OCC2CN(C(=O)COc3ccccc3C)CCO2)cc1 (centres undefined)
Return: 75.9

Enquiry: Could you please provide reported inhibition for O=S(=O)(Nc1nc2c(ccc3ccccc32)s1)c1ccc(Cl)s1 ? Thanks!
Return: 22.8

Enquiry: State its inhibition: O=C(Cc1cccc(Cl)c1)N1CCOC(COc2ccc3c(c2)CCCC3)C1 (centres undefined)
Return: 44

----------
- Experimental details: Mycobacterium tuberculosis growth inhibition, primary screen (AID 1259343)
- Assay conditions: at 10 µM
Out of some 6,200 compounds screened, about 2,900 (47%) were called active. Cut-off read from the data, not from the text of the source: active = inhibition above about 50%; inactive = the rest. So high a share suggests a set chosen from earlier hits. This is one part of the list.
Choose the fitting class; nothing outside active, inactive is accepted.

O=C(CCl)N1CCN(Cc2ccc(Cl)s2)CC1
inactive
O=C(NCCCc1ccccc1)c1cc(=O)c(OCc2ccc(F)cc2)co1
active
O=C(CCl)Nc1ncc(Cc2ccccc2)s1
inactive
c1ccc(Cn2nnc3c(Sc4ncco4)ncnc32)cc1
active
Fc1ccc(CSc2ncnc3c2nnn3Cc2ccccc2F)cc1
inactive

Enquiry: Called result for COc1ccc(Cn2c(C3CCCCC3)nc3oc4ccccc4c(=O)c3c2=O)cc1
Return: inactive

Enquiry: Check the results log: what was the call for CC(=O)O[C@@H]1C[C@@]2(C)[C@H](c3ccoc3)C[C@H]3O[C@]32[C@]2(C)C(=O)C(O)=C3C(C)(C)C(=O)C=C[C@]3(C)C12 (stereo partly drawn) ?
Return: active

Enquiry: Can you look up the reported call for Fc1ccc(Cn2nnc3c(SCc4cccc(F)c4)ncnc32)cc1 for me?
Return: active

Enquiry: What was the test verdict on c1ccc(CSc2ncnc3c2nnn3Cc2ccccc2)cc1 ?
Return: inactive

Enquiry: So what was the verdict on CC(C)Oc1ccc(Nc2nccc3[nH]c(-c4ccccc4)cc23)cc1 in this test?
Return: active

Enquiry: Fill in: this test's call for O=C1CCCCC1Sc1nnc(Nc2ccccc2)s1 (stereo not drawn) is ___
Return: inactive

Enquiry: Test call for this compound, please: Fc1ccc(Cn2nnc3c(SCc4ccccc4)ncnc32)cc1
Return: active

Enquiry: Tell me the assay call for CC(C)c1ccc(NC(=O)CCN2CCN(CC3CCCO3)CC2)cc1 (stereo not drawn) please.
Return: active

Enquiry: Each compound tested received a call. Report the one for S=c1[nH]cnc2sc3c(c12)CCCC3 .
Return: active

----------
- Experimental details: Mycobacterium tuberculosis growth inhibition, primary screen (AID 1259343)
- Assay conditions: at 10 µM, stronger effect = higher value
About 2,900 (47%) of roughly 6,200 compounds were called active. So high a share suggests a set chosen from earlier hits. The list shows a part of the results.
We use 40% as the dividing line for inhibition: on or above the line is Met, below is Not met.

As a guide, the following entries are already answered.
COCCCNc1ncnc2c1c(-c1ccccc1)cn2-c1ccc(OC)cc1
Met
Cc1cc(C)c(OCC(=O)NS(=O)(=O)c2c(C)noc2C)c(C)c1
Met
CCCc1cc(=O)[nH]c(-n2nc(C)cc2NC(=O)Cc2cccc3ccccc23)n1
Met
COCCNc1ncnc2c1c(-c1ccccc1)cn2-c1ccc(C)cc1
Met
CC(=O)Nc1ccc(CC(=O)OCc2ccc(F)cc2)cc1
Not met

Enquiry: Reported inhibition at or above 40%? CCCc1cc(=O)[nH]c(-n2nc(C)cc2NC(=O)CC(c2ccccc2)c2ccccc2)n1
Return: Met

Enquiry: In plain terms: is recorded inhibition at least 40% for Cc1csc(NC(=O)C(C)Oc2cccc(Cl)c2)n1 (stereo unspecified) ?
Return: Met

Enquiry: Please check the record COc1cccc(Nc2nc(C(N)COCc3ccccc3)cs2)n1 (stereo unspecified) and state if its inhibition is at or above 40%.
Return: Met

Enquiry: Kindly determine if inhibition recorded for Cc1csc(NC(=O)COc2c(C)cc(Cl)cc2C)n1 is above or exactly 40%.
Return: Met

Enquiry: Does CCn1nc(NC(C)=O)c2cc3ccc(C)cc3nc21 have a reported inhibition of at least 40%?
Return: Not met

Enquiry: Hi team, for COCC(C)Nc1ncnc2c1c(-c1ccccc1)cn2-c1ccc(OC)cc1 (stereo unspecified) , is the recorded inhibition at or above 40%?
Return: Not met

----------
- Experimental details: Mycobacterium tuberculosis growth inhibition, primary screen (AID 1259343)
- Assay conditions: 10 uM
About 2,900 (47%) of roughly 6,200 compounds were called active. The set was probably picked from earlier hits. The list shows a part of the results.
Value type: outcome

Example entries begin here.
Cc1cc(C)n(C(C)CNS(=O)(=O)c2ccc(Cl)cc2)n1 (stereo unspecified)
inactive
Cc1cc(C=Cc2ccc3cc(N(C)C)ccc3[n+]2C)c(C)n1-c1ccccc1
inactive
COc1ccc(Nc2ncc([N+](=O)[O-])cc2[N+](=O)[O-])cc1
inactive
OCC1(Cc2ccccc2)CCCN(Cc2ccc(-c3ccco3)cc2)C1 (stereo unspecified)
inactive
COc1ccc(OCc2cc(C(=O)N(C)CC3CCCCO3)no2)c(Cl)c1 (stereo unspecified)
inactive

Query compound follows.
Enquiry: Find the measured outcome of CN(Cc1ccsc1)C(=O)CCc1nnc(CCCc2ccccc2)o1 and report it.
Return: inactive
